// reported EC50 (read off the curve) per item
TARGET SYSTEM: T1, human SIRPγ on stably transfected CHO cells (human, UniProt Q9P1W8 29-387)
T1 construct: also called Human SIRPγ CHO
T1 sequence (Q9P1W8 29-387 limits assumed): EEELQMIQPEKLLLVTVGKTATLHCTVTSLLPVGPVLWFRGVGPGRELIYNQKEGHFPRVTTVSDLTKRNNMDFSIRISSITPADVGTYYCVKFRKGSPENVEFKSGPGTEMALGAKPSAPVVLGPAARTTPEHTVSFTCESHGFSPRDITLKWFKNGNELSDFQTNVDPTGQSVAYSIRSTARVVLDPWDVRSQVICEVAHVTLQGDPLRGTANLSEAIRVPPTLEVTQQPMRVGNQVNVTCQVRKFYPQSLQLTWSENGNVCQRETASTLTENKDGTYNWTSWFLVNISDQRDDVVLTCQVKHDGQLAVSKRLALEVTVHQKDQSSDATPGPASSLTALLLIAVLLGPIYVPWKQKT
PROTOCOL DETAILS: flow cytometry, CHO transfectants, anti-human IgG

{"columns": ["BINDER", "EC50 (read off the curve)"],
 "data": [
  ["Antibody 65 (antibody, V domains shown) VH: QVQLVQSGAEVKKPGASVKVSCKASGYTFTSHDINWVRQAPGQGLEWMGWMNANNGNAGYAQKFQGRVTMTRDTSTSTVYMELSSLRSEDTAVYYCAKDLSPSSSWSTYYYYYGMDVWGQGTMVTVSS VL: DIQMTQSPSSLSASVGDRVTITCRASQSISNLLAWYQQKPGKAPKLLIYAASSLQSGVPSRFSGSGSGTDFTLTISSLQPEDFATYYCQQSYSTPYTFGQGTKLEIK", "~0.5 µg/mL"]
]}

Attention now turns to another entry.
**Q:** Data request, read-out EC50 (read off the curve), for Antibody 69 (antibody, V domains shown) VH: QVQLVQSGAEVKKPGASVKVSCKASGYTFTSYYMHWVRQAPGQGLEWMGWMNPNSDNTGYAQKFQGRVTMTRDTSTSTVYMELSSLRSEDTAVYYCARVGVGYGYYYYGMDVWGQGTTVTVSS VL: DIQMTQSPSSLSASVGDRVTITCRAGQSIGDYLNWYQQKPGKAPKLLIYAASSLQSGVPSRFSGSGSGTDFTLTISSLQPEDFATYYCQQSYSTPWTFGQGTKVEIK
**A:** ~0.5 µg/mL
